target.under.test: HER2 YVMA (Homo sapiens, UniProt P04626, INS775YVMA)
Construct: expressed in transfected cells; host or cells: BaF3 (murine pro-B)
Sequence (P04626 with tags, fused parts or gaps INS775YVMA): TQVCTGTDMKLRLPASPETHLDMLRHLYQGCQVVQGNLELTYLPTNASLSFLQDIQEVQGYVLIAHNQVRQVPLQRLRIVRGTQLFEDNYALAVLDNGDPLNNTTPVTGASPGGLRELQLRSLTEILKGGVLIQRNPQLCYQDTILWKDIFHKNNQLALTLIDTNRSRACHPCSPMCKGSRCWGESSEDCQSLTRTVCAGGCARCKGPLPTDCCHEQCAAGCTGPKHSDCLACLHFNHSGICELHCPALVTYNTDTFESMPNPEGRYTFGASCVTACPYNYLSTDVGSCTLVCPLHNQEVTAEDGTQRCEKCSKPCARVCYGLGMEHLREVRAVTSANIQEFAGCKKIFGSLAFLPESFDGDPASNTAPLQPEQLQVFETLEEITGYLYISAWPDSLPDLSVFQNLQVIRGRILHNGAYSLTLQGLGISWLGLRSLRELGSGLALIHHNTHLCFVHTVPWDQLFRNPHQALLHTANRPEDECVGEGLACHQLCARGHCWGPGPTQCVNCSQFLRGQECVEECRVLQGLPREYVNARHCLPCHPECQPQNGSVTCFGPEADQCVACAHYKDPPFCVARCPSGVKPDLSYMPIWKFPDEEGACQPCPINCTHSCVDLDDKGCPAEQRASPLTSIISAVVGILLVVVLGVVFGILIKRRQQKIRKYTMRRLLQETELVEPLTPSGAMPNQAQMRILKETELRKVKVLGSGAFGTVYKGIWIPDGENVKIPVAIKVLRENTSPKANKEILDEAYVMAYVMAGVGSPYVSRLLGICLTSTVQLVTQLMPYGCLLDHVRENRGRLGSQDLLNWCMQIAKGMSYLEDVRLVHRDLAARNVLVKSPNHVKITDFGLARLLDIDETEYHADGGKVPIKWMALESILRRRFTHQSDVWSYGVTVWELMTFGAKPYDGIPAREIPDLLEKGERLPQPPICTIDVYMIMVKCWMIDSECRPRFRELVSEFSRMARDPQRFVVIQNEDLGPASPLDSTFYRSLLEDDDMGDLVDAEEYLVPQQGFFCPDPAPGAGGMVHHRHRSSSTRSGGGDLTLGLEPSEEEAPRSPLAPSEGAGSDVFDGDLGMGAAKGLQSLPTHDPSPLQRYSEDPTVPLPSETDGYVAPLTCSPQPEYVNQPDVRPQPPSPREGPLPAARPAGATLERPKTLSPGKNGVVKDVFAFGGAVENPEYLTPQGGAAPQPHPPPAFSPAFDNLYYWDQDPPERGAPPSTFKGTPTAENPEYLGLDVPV
experimental.details: BaF3 cell proliferation assay, HER2 YVMA (Table B)
Type: cell-based
run.parameters: potency code, 3 days, CellTiterGlo, read-out: HER2 YVMA (Activity for Inhibiting HER2)
Provide the reported IC50 of each item.

-- ask Returns the measured IC50 for the input compound. Input: C=CC(=O)Nc1cc2c(Nc3ccc(OCc4cccc(F)c4)c(Cl)c3)ncnc2cc1OCCN1CC2CCC(C1)O2
-- reply 100 to 200 nM

-- ask Please give the result for CC#CC(=O)Nc1cc2c(Nc3ccc(OCc4ncccn4)c(Cl)c3)ncnc2cc1OCCCN1CCOCC1 too.
-- reply 50 to 100 nM

-- ask Please give the result for C=CC(=O)Nc1cc2c(Nc3ccc(Oc4ccccc4)cc3)ncnc2cc1OCCN1CCOCC1 too.
-- reply 300 to 500 nM

-- ask Please give the result for C=CC(=O)Nc1cc2c(Nc3ccc(OCc4ccccn4)c(Cl)c3)ncnc2cc1OCC1CCN1C (stereo not drawn) too.
-- reply 200 to 300 nM

-- ask Please give the result for C=CC(=O)Nc1cc2c(Nc3ccc(OCc4ccccn4)c(Cl)c3)ncnc2cc1OCCN1CC2CC1CO2 (stereo not drawn) too.
-- reply 50 to 100 nM

-- ask Please give the result for C=CC(=O)Nc1cc2c(Nc3ccc(OCc4cccc(F)c4)c(Cl)c3)ncnc2cc1OCCCN1C[C@H]2C[C@@H]1CO2 too.
-- reply 300 to 500 nM

-- ask Please give the result for C=CC(=O)Nc1cc2c(Nc3ccc(OCc4cccc(F)n4)c(Cl)c3)ncnc2cc1OCCN1CCOCC1 too.
-- reply 100 to 200 nM

-- ask Please give the result for CC#CC(=O)Nc1cc2c(Nc3cc(Cl)c(OCc4cccc(F)c4)cc3F)ncnc2cc1OCCN1CC(OC)C1 too.
-- reply 50 to 100 nM

-- ask Please give the result for C=CC(=O)Nc1cc2c(Nc3cc(Cl)c(OCc4cccc(F)c4)cc3F)ncnc2cc1OCCN1CCN(C)CC1 too.
-- reply 200 to 300 nM

-- ask Please give the result for C=CC(=O)Nc1cc2c(Nc3ccc(CC(=O)c4ccccn4)c(Cl)c3)ncnc2cc1O[C@@H]1CCN(C)C1 too.
-- reply 300 to 500 nM

-- ask Please give the result for C=CC(=O)Nc1cc2c(Nc3ccc(OCc4ccccn4)c(Cl)c3)ncnc2cc1OCC1CN(C)C1 too.
-- reply 100 to 200 nM

-- ask Please give the result for C=CC(=O)Nc1cc2c(Nc3ccc(OCc4ccccn4)c(Cl)c3)ncnc2cc1N1CCN(C)CC1 too.
-- reply 500 to 1000 nM

-- ask Please give the result for C=CC(=O)Nc1cc2c(Nc3ccc(OCc4cccc(F)n4)c(Cl)c3)ncnc2cc1OCCCN1CC(OC)C1 too.
-- reply 30 to 50 nM

-- ask Please give the result for C=CC(=O)Nc1cc2c(Nc3ccc(OCc4ccccn4)c(Cl)c3)ncnc2cc1OCCN1CC2(CCO2)C1 too.
-- reply 100 to 200 nM

-- ask Please give the result for C=CC(=O)Nc1cc2c(Nc3ccc(OCc4ccccn4)c(Cl)c3)ncnc2cc1OCC1CCCN1 (stereo not drawn) too.
-- reply 300 to 500 nM

----------
target.under.test: HER2 WT (Homo sapiens, UniProt P04626)
Sequence (P04626 23-1255): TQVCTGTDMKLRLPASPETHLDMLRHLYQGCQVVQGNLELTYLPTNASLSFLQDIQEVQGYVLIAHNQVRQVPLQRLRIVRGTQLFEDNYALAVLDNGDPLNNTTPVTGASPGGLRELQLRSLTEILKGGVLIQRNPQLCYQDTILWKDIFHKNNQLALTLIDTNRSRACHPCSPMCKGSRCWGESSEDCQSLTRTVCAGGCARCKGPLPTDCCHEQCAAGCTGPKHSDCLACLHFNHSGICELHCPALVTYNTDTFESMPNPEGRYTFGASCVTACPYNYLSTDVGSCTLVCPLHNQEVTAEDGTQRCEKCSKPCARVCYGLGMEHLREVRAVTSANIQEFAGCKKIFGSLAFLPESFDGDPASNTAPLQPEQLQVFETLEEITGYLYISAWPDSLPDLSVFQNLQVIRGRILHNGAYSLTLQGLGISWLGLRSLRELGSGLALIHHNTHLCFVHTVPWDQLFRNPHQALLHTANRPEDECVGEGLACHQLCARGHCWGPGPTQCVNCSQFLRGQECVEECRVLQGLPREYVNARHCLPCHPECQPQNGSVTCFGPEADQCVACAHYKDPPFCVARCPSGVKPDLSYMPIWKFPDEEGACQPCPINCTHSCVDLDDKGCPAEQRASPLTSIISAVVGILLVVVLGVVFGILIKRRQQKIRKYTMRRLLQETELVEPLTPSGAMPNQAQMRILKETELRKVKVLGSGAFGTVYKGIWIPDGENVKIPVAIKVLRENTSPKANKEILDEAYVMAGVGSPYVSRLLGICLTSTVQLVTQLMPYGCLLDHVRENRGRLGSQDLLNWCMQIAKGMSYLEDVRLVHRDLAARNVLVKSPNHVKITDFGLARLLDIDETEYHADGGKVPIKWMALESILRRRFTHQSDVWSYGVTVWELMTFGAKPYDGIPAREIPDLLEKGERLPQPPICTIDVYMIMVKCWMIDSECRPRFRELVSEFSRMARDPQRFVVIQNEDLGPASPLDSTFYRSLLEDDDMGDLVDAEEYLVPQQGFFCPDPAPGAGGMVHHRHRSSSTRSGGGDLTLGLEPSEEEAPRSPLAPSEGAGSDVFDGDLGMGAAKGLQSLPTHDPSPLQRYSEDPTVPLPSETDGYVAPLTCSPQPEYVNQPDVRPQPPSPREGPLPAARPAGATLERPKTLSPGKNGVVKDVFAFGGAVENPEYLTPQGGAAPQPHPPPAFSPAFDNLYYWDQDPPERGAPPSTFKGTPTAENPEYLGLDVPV
experimental.details: Activity for inhibiting HER2 (Table B), HER2 WT
Format: cell-based
run.parameters: text lists of compounds; read-out: IC50 value for inhibiting wild-type HER2
pIC50: −log10 of the molar value.
measured.endpoint: pIC50

-- ask Returns the measured pIC50 for the input compound. Input: C=CC(=O)Nc1cc2c(Nc3ccc(OCc4ccccn4)c(Cl)c3)ncnc2cc1OCCCN1CCCC1
-- reply ≥ 8.30

-- ask Please give the result for C=CC(=O)Nc1cc2c(Nc3ccc(OCc4ccccn4)c(Cl)c3)ncnc2cc1N1CCC(N(C)C)CC1 too.
-- reply ≥ 7.70

-- ask Please give the result for C=CC(=O)Nc1cc2c(Nc3ccc(OCc4ccccn4)c(Cl)c3)ncnc2cc1OCCN1CC2CC1CO2 (centres unmarked) too.
-- reply ≥ 8.00

-- ask Please give the result for CC#CC(=O)Nc1cc2c(Nc3ccc(OCc4ccccn4)c(Cl)c3)ncnc2cc1OCCN1CCOCC1 too.
-- reply ≥ 8.30

-- ask Please give the result for C=CC(=O)Nc1cc2c(Nc3ccc(OCc4ccccn4)c(Cl)c3)ncnc2cc1OCCN1CC2(COC2)C1 too.
-- reply ≥ 8.00

-- ask Please give the result for C=CC(=O)Nc1cc2c(Nc3ccc(OCc4ccccn4)c(Cl)c3)ncnc2cc1OC1CCNC1 (centres unmarked) too.
-- reply ≥ 7.70

-- ask Please give the result for C=CC(=O)Nc1cc2c(Nc3ccc(OCc4ccccn4)c(Cl)c3)ncnc2cc1C#C[C@@H]1[C@H]2CN(C)C[C@@H]12 too.
-- reply ≥ 8.00

-- ask Please give the result for C=CC(=O)Nc1cc2c(Nc3ccc(OCc4ccccn4)c(Cl)c3)ncnc2cc1N1CC2CN(C)CC2C1 (centres unmarked) too.
-- reply ≥ 7.70

-- ask Please give the result for C=CC(=O)Nc1cc2c(Nc3ccc(OCc4ccccn4)c(Cl)c3)ncnc2cc1OCCN1C2CCC1COC2 too.
-- reply ≥ 8.00

-- ask Please give the result for C=CC(=O)Nc1cc2c(Nc3ccc(OCc4ccccn4)c(Cl)c3)ncnc2cc1OC1CN(C)C1 too.
-- reply ≥ 7.70

-- ask Please give the result for C=CC(=O)Nc1cc2c(Nc3ccc(OCc4ccccn4)c(Cl)c3)ncnc2cc1OCCN1CC(OC)C1 too.
-- reply ≥ 8.30

-- ask Please give the result for C=CC(=O)Nc1cc2c(Nc3ccc(Oc4ccc(C)nc4)c(C)c3)ncnc2cc1OC1CCN(C)C1 (centres unmarked) too.
-- reply ≥ 7.70

-- ask Please give the result for C=CC(=O)Nc1cc2c(Nc3ccc(OCc4ccccn4)c(Cl)c3)ncnc2cc1OCCN1CC2COCC2C1 (centres unmarked) too.
-- reply ≥ 8.00

-- ask Please give the result for C=CC(=O)Nc1cc2c(Nc3ccc(OCc4ccccn4)c(Cl)c3)ncnc2cc1OCCN(C)C1CCOC1 (centres unmarked) too.
-- reply ≥ 8.00

----------
Provide the reported IC50 of each item.
target.under.test: HER2 YVMA (Homo sapiens, UniProt P04626, INS775YVMA)
Construct: expressed in transfected cells; host or cells: BaF3 (murine pro-B)
experimental.details: Activity for inhibiting HER2 (Table B), HER2 YVMA
Type: cell-based
run.parameters: read-out: HER2 YVMA, potency code (IC50)

-- ask Returns the measured IC50 for the input molecule. Input: C=CC(=O)Nc1cc2c(Nc3ccc(OCc4ccccn4)c(Cl)c3)ncnc2cc1C#CC(C)(C)N(C)C [compound 66]
-- reply 50 to 100 nM

-- ask Please give the result for C=CC(=O)Nc1cc2c(Nc3cc(Cl)c(OCc4cccc(F)c4)cc3F)ncnc2cc1O[C@@H]1CCN(C)C1 [compound 133] too.
-- reply 500 to 1000 nM

-- ask Please give the result for C=CC(=O)Nc1cc2c(Nc3ccc(OCc4ccccn4)c(Cl)c3)ncnc2cc1OCCN(C)C1CC1 [compound 53] too.
-- reply 100 to 200 nM

-- ask Please give the result for C=CC(=O)Nc1cc2c(Nc3ccc(OCc4cccc(C)n4)c(Cl)c3)ncnc2cc1OCCCN1CC(OC)C1 [compound 138] too.
-- reply 50 to 100 nM

----------
Provide the reported IC50 of each item.
target.under.test: EGFR V3 (Homo sapiens, UniProt P00533, DELINS30-297G)
Construct: expressed in transfected cells; host or cells: BaF3 (murine pro-B), retroviral pMXs-IRES-Blasticidin
Sequence (P00533 with tags, fused parts or gaps DELINS30-297G): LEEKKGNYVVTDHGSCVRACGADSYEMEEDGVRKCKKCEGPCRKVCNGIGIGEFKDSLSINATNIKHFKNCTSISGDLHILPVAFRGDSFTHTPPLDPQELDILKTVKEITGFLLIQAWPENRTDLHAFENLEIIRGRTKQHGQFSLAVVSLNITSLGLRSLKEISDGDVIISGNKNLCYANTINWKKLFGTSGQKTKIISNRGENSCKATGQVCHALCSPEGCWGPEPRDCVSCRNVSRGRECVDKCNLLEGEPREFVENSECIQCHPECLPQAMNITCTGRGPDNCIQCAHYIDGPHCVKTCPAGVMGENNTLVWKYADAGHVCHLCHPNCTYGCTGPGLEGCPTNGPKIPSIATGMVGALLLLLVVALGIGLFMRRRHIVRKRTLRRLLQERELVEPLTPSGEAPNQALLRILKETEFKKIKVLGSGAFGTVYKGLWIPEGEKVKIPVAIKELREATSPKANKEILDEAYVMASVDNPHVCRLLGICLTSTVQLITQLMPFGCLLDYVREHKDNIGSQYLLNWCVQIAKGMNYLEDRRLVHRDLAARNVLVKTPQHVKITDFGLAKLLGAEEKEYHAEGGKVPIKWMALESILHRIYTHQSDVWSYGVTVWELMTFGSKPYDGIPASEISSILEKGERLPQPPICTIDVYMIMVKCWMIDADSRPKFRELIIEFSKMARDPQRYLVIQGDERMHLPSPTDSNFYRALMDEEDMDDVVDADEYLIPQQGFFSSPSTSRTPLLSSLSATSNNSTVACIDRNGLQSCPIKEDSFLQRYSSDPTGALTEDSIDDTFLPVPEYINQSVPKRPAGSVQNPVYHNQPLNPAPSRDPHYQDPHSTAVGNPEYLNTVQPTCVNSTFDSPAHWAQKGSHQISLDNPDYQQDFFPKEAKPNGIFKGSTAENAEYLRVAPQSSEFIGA
experimental.details: BaF3 cell proliferation assay, EGFR V3 (Table A)
Assay type: cell-based
run.parameters: potency code, 3 days, CellTiterGlo, read-out: EGFR V3 (Activity for Inhibiting EGFR)

-- ask Please provide the recorded IC50 for C=CC(=O)Nc1cc2c(Nc3ccc(OCc4cccnn4)c(Cl)c3)ncnc2cc1OCCN1CC2CCC(C1)O2 , tested on EGFR V3 (Homo sapiens, UniProt P00533, DELINS30-297G).
-- reply 50 to 100 nM

-- ask Please give the result for C=CC(=O)Nc1cc2c(Nc3ccc(OCc4ccccn4)cn3)ncnc2cc1OCCN1CCOCC1 too.
-- reply 200 to 300 nM

-- ask Please give the result for C=CC(=O)Nc1cc2c(Nc3ccc(OCc4ccccn4)c(Cl)c3)ncnc2cc1OCCN1CC2(COC2)C1 too.
-- reply 30 to 50 nM

-- ask Please give the result for CC#CC(=O)Nc1cc2c(Nc3cc(Cl)c(OCc4cccc(F)c4)cc3F)ncnc2cc1OCCN1CC2CCC(C1)O2 too.
-- reply 100 to 200 nM

-- ask Please give the result for C=CC(=O)Nc1cc2c(Nc3ccc(OCc4ccccn4)c(Cl)c3)ncnc2cc1OC1CC(N(C)C)C1 (stereo not drawn) too.
-- reply 10 to 20 nM

-- ask Please give the result for C=CC(=O)Nc1cc2c(Nc3ccc(OCc4cccc(F)n4)c(Cl)c3)ncnc2cc1OCCN1CC2CCC(C1)O2 too.
-- reply 50 to 100 nM

-- ask Please give the result for C=CC(=O)Nc1cc2c(Nc3ccc(OCc4cccc(F)c4)c(Cl)c3)ncnc2cc1OCCCN1C[C@@H]2C[C@H]1CO2 too.
-- reply 100 to 200 nM

-- ask Please give the result for CC#CC(=O)Nc1cc2c(Nc3ccc(OCc4cccnn4)c(Cl)c3)ncnc2cc1OCCCN1CCOCC1 too.
-- reply 30 to 50 nM

-- ask Please give the result for C=CC(=O)Nc1cc2c(Nc3ccc(OCc4cccc(F)n4)c(Cl)c3)ncnc2cc1OCCN1CC(OC)C1 too.
-- reply 30 to 50 nM

-- ask Please give the result for CC#CC(=O)Nc1cc2c(Nc3cc(Cl)c(OCc4cccc(F)c4)cc3F)ncnc2cc1O[C@@H]1CCN(C)C1 too.
-- reply 50 to 100 nM

-- ask Please give the result for CC#CC(=O)Nc1cc2c(Nc3ccc(OCc4ccccn4)c(Cl)c3)ncnc2cc1OCCN1CCOCC1 too.
-- reply 10 to 20 nM

-- ask Please give the result for C=CC(=O)Nc1cc2c(Nc3ccc(Oc4ccc(C)nc4)c(C)c3)ncnc2cc1OCCN1CCOCC1 too.
-- reply 50 to 100 nM

-- ask Please give the result for C=CC(=O)Nc1cc2c(Nc3ccc(OCc4cccc(F)c4)c(Cl)c3)ncnc2cc1OCCN1CC(OC)C1 too.
-- reply 50 to 100 nM

-- ask Please give the result for COC/C=C/C(=O)Nc1cc2c(Nc3ccc(OCc4ccccn4)c(Cl)c3)ncnc2cc1OCCN1CCOCC1 too.
-- reply 100 to 200 nM

-- ask Please give the result for C=CC(=O)Nc1cc2c(Nc3cc(C)c(OCc4ccccn4)cc3F)ncnc2cc1OCCN1CCOCC1 too.
-- reply 30 to 50 nM
